systemName: Luciferin 4-monooxygenase (Photinus pyralis)
protocolDescription: qHTS profiling assay for firefly luciferase inhibitor/activator using purifed enzyme and Km concentrations of substrates (counterscreen for miR-21 project); note: nearly all actives have a fitted effect of over 55% in size
protocolConditions: purified FLuc, luminescence inhibition; series mostly up to 57.5 µM
In all, about 360,000 compounds went through this assay and about 25,000 (6.9%) were called active. Inconclusive results (about 9%) are left out. Calls come from the whole dose curve; as a rule, active = well fitted inhibition curve with a large enough effect; inconclusive = small, poorly fitted or top-dose-only effect; inactive = flat fitted curve, though single readings scatter. This is one part of a sample in which actives are shown more often than they occur.
Possible outcomes: label 1 for active, label 0 for inactive

[
  {
    "molecule": "C=CCNC(=O)/C(=C\\c1cccc([N+](=O)[O-])c1)NC(=O)c1ccccc1",
    "categoryLabel": "label 0"
  },
  {
    "molecule": "CC(C)CNC(=S)Nc1ccc(F)cc1",
    "categoryLabel": "label 0"
  },
  {
    "molecule": "c1ccc(-c2csc(N3CCc4ccccc4C3)n2)cc1",
    "categoryLabel": "label 1"
  },
  {
    "molecule": "CCOC(=O)/C=c1\\s/c(=C\\c2ccc(C#N)cc2)c(=O)n1CC(=O)Nc1cccc(C)c1C",
    "categoryLabel": "label 0"
  },
  {
    "molecule": "COc1ccc(N(CC(=O)NC(C)(C)C)C(=O)c2ccco2)cc1",
    "categoryLabel": "label 0"
  },
  {
    "molecule": "COc1ccc(/C=C2\\N=C3CCCN3C2=O)cc1",
    "categoryLabel": "label 1"
  },
  {
    "molecule": "CCC(=O)Nc1ccc2c(c1)nc(CCN1CCN(c3ccccn3)CC1)n2C",
    "categoryLabel": "label 0"
  },
  {
    "molecule": "Cn1c(CCN2CCCC2)nc2cc(NS(=O)(=O)c3ccccc3)ccc21",
    "categoryLabel": "label 0"
  },
  {
    "molecule": "COc1cc(C(=O)NCC(c2ccco2)N2CCCC2)ccc1OCc1ccccc1 (stereo not drawn)",
    "categoryLabel": "label 0"
  },
  {
    "molecule": "Cc1[nH]c2ccccc2c1C(c1ccccc1)c1cccs1 (stereo not drawn)",
    "categoryLabel": "label 0"
  },
  {
    "molecule": "O=C(NNC(=S)NC1CC2CCC1C2)c1ccc(Cl)cc1 (stereo not drawn)",
    "categoryLabel": "label 0"
  },
  {
    "molecule": "COc1ccc(-c2nn3c(-c4ccc(OC)cc4)nnc3c3ccccc23)cc1",
    "categoryLabel": "label 0"
  },
  {
    "molecule": "Nc1c(N(Cc2ccco2)C(=O)c2cccc(F)c2)c(=O)[nH]c(=O)n1Cc1ccccc1",
    "categoryLabel": "label 0"
  },
  {
    "molecule": "CCN(CC(=O)Nc1ccc(NC(C)=O)cc1)C(=O)CSC(=S)N1CCCC1",
    "categoryLabel": "label 0"
  },
  {
    "molecule": "COc1ccc(C2NC(=O)N(C)C3=C2C(=O)N(c2ccc(C(=O)O)cc2)C3)cc1 (stereo not drawn)",
    "categoryLabel": "label 0"
  },
  {
    "molecule": "Cc1cc(C)n(CCNS(=O)(=O)c2ccc(Cl)cc2)n1",
    "categoryLabel": "label 0"
  },
  {
    "molecule": "CC(C)CNC(=O)C(=O)Nc1ccc(N(C)C)cc1",
    "categoryLabel": "label 1"
  },
  {
    "molecule": "COC(=O)c1ccc(NC(=O)c2cnn(-c3ccc(Cl)cc3)c2C2CCN(C(=O)OC(C)(C)C)CC2)cc1",
    "categoryLabel": "label 0"
  }
]

* * *

systemName: Luciferin 4-monooxygenase (Photinus pyralis) (UniProt P08659)
Sequence (P08659 whole entry, looked up): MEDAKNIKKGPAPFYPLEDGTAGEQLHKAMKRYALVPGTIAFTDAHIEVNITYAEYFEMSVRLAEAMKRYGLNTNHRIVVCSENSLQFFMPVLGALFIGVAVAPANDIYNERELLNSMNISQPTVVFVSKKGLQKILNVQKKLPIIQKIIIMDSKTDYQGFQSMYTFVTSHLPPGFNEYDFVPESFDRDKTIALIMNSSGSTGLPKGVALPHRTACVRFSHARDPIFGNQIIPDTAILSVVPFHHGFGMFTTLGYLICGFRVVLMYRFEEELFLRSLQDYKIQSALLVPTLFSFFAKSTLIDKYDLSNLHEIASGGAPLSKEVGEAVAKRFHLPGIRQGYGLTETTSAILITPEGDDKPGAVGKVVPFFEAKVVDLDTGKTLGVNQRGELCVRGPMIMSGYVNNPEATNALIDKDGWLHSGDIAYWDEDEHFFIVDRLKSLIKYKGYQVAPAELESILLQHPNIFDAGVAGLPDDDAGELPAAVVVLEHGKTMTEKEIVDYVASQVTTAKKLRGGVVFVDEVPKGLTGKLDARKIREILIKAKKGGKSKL
protocolDescription: qHTS profiling assay for firefly luciferase inhibitor/activator using purifed enzyme and Km concentrations of substrates (counterscreen for miR-21 project); note: nearly all actives have a fitted effect of over 55% in size; note: potency is the fitted concentration of half-maximal effect
protocolConditions: purified FLuc, luminescence inhibition; series mostly up to 57.5 µM
The whole screen tested about 360,000 compounds, of which about 25,000 (6.9%) were called active. Inconclusive results (about 9%) are left out. The sample as a whole holds a higher share of actives than the screen did.

[
  {
    "molecule": "O=C(c1cc(COc2cccc(C(F)(F)F)c2)on1)N1CCSCC1",
    "systemName": "Luciferin 4-monooxygenase (Photinus pyralis) (UniProt P08659)",
    "Potency": "inactive"
  },
  {
    "molecule": "O=C(c1cc(COc2ccc(F)cc2F)on1)N1CCOCC1",
    "systemName": "Luciferin 4-monooxygenase (Photinus pyralis) (UniProt P08659)",
    "Potency": "16.9 µM (active)"
  },
  {
    "molecule": "Nn1c(SCC(=O)Nc2nccs2)nnc1-c1ccco1",
    "systemName": "Luciferin 4-monooxygenase (Photinus pyralis) (UniProt P08659)",
    "Potency": "inactive"
  },
  {
    "molecule": "O=C(Oc1ccc(F)cc1)N1CCOCC1",
    "systemName": "Luciferin 4-monooxygenase (Photinus pyralis) (UniProt P08659)",
    "Potency": "inactive"
  },
  {
    "molecule": "O=C(c1cc(COc2c(F)cccc2F)on1)N1CCSCC1",
    "systemName": "Luciferin 4-monooxygenase (Photinus pyralis) (UniProt P08659)",
    "Potency": "19 µM (active)"
  },
  {
    "molecule": "Cc1ccc2nc(/C(C#N)=C\\c3ccc(OC(=O)c4cccs4)cc3)[nH]c2c1",
    "systemName": "Luciferin 4-monooxygenase (Photinus pyralis) (UniProt P08659)",
    "Potency": "inactive"
  },
  {
    "molecule": "N#C/C(=C\\c1ccccc1F)c1nc2ccccc2c(=O)[nH]1",
    "systemName": "Luciferin 4-monooxygenase (Photinus pyralis) (UniProt P08659)",
    "Potency": "inactive"
  },
  {
    "molecule": "CCC(=O)Nc1cccc(C2=NOC3(C2)C[C@@H](C(N)=O)N(C(=O)c2cc([N+](=O)[O-])cc([N+](=O)[O-])c2C)C3)c1 (stereo not given in full)",
    "systemName": "Luciferin 4-monooxygenase (Photinus pyralis) (UniProt P08659)",
    "Potency": "inactive"
  },
  {
    "molecule": "O=C1/C(=C/c2ccc3c(c2)OCO3)Oc2cc(OCC(=O)N3CC(O)C[C@H]3C(=O)O)ccc21 (stereo not given in full)",
    "systemName": "Luciferin 4-monooxygenase (Photinus pyralis) (UniProt P08659)",
    "Potency": "0.757 µM (active)"
  },
  {
    "molecule": "COc1ccc(C(=O)Nc2nonc2-c2ccc(OC)c(OC)c2)cc1Cl",
    "systemName": "Luciferin 4-monooxygenase (Photinus pyralis) (UniProt P08659)",
    "Potency": "inactive"
  }
]

* * *

systemName: Luciferin 4-monooxygenase (Photinus pyralis) (UniProt P08659)
protocolDescription: qHTS profiling assay for firefly luciferase inhibitor/activator using purifed enzyme and Km concentrations of substrates (counterscreen for miR-21 project); note: nearly all actives have a fitted effect of over 55% in size
protocolConditions: purified FLuc, luminescence inhibition; series mostly up to 57.5 µM
Text: MLPCN Grant: 1 R21 NS059478-01 (miR-21 grant) Assay Provider: NCGC NCGC Assay Overview: Firefly (Photinus pyralis) luciferase is one of the most commonly used transcriptional reporters for a number of reasons. […] Although light produced in a bioluminescence reaction is of lower intensity than that produced during fluorescence emission, this is offset by little to no background light inherent to luminescent assays. […]
The whole screen tested about 360,000 compounds, of which about 25,000 (6.9%) were called active. Inconclusive results (about 9%) are left out. The call rests on the fitted dose curve; in most records, active means well fitted inhibition curve with a large enough effect; inconclusive means small, poorly fitted or top-dose-only effect; inactive means flat fitted curve, though single readings scatter. Many of the other results were omitted from the sample, so actives are more common in it than they were.
Possible outcomes: t for active, f for inactive

[
  {
    "compound": "O=C(NC1CC(=O)N(c2ccc(F)cc2)C1)c1ccc(S(=O)(=O)N2CCCC2)cc1 (configuration not stated)",
    "categoryLabel": "f"
  },
  {
    "compound": "O=C(Nc1nncs1)c1cccc(S(=O)(=O)N2CCCCC2)c1",
    "categoryLabel": "f"
  },
  {
    "compound": "CCOC(=O)c1c(C)nc2c(c1C)c(=O)oc1ccccc12",
    "categoryLabel": "t"
  },
  {
    "compound": "C=Cc1ccc(Cn2c(C(=O)OC)cc3sc(C)cc32)cc1",
    "categoryLabel": "f"
  },
  {
    "compound": "CC(=O)N1CCN(C(=O)Nc2cccc(C(F)(F)F)c2)CC1",
    "categoryLabel": "f"
  },
  {
    "compound": "O=C(NCc1cccnc1)c1cn(-c2ccccc2)nc1-c1cccs1",
    "categoryLabel": "t"
  },
  {
    "compound": "Cc1cccc(NC(=O)c2cccc(S(=O)(=O)N3CCCC3)c2)n1",
    "categoryLabel": "f"
  },
  {
    "compound": "Cc1cccc(C(=O)Nc2nnc(S(=O)(=O)N3CCCCCC3)s2)c1",
    "categoryLabel": "t"
  },
  {
    "compound": "O=C(CN1CCCCCC1)Nc1ccc(Br)cc1Br",
    "categoryLabel": "t"
  },
  {
    "compound": "S=c1[nH]nc(-c2cccs2)n1/N=C/c1cn(-c2ccccc2)nc1-c1ccc(Cl)cc1",
    "categoryLabel": "f"
  },
  {
    "compound": "O=C(CNC(=O)OCc1ccccc1)NC1CCCCNC1=O (configuration not stated)",
    "categoryLabel": "f"
  },
  {
    "compound": "O=C(CN1CCCCCC1)Nc1c(Cl)cc(Cl)cc1Cl",
    "categoryLabel": "t"
  },
  {
    "compound": "CCOc1ccc(NC(=O)Cn2c(C)ccc(C#N)c2=O)cc1",
    "categoryLabel": "f"
  },
  {
    "compound": "Cc1ccc(S(=O)(=O)NCCC(=O)Nc2cccc(S(N)(=O)=O)c2)cc1C",
    "categoryLabel": "f"
  },
  {
    "compound": "CN(C(=O)COC(=O)CCCc1c[nH]c2ccccc12)c1c(N)n(Cc2ccccc2)c(=O)[nH]c1=O",
    "categoryLabel": "f"
  },
  {
    "compound": "Cc1nc2ccccn2c(=O)c1NC(=O)c1c(F)cccc1F",
    "categoryLabel": "f"
  },
  {
    "compound": "O=C(COC(=O)C1CC2C=CC1C2)Nc1ccccc1 (configuration not stated)",
    "categoryLabel": "t"
  }
]

The measurements presented in this section are drawn from PubChem BioAssay AID588342.
